target-system: bacterial NAD synthetase enzyme (Bacillus subtilis)
Sequence (P08164 2-272 limits assumed): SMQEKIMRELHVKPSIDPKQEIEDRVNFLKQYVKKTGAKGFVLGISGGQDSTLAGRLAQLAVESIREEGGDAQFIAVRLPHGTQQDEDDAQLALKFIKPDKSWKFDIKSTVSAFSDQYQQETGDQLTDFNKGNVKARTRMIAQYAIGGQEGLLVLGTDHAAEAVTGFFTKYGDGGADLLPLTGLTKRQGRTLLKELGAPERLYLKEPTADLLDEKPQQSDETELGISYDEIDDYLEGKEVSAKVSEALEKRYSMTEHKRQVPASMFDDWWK
test: biochemical
Type: biochemical
quantity-kind: pIC50
One number for each entry, as −log10 of the molar value.

# map each compound to its pIC50
1. COC(=O)c1cc2ccccc2n1CCCCCCOC(=O)Cc1ccc([N+](C)(C)C)cc1 [Compound 983]
2. COC(=O)c1ccc2ccn(CCCCCCC[n+]3ccccc3)c2c1 [Compound 213]
3. C[N+](C)(C)c1ccc(CC(=O)OCCCCCCCCOc2ccccc2C(=O)Nc2ccccc2)cc1 [Compound 1074]
4. COC(=O)c1ccc[n+](CCCCCCCCn2ccc3cc([N+](=O)[O-])ccc32)c1 [Compound 13]
5. C[n+]1cc(C(=O)OCCCCCCn2ccc3cc([N+](=O)[O-])ccc32)cc2ccccc21 [Compound 832]
6. C[N+](C)(C)c1ccc(C(=O)OCCCCCCCc2cc3ccc(C(F)(F)F)cc3[nH]2)cc1 [Compound 884]

1. 4.60
2. 4.19
3. 4.52
4. 4.30
5. 4.05
6. 4.35
